system: A549-TP53BP1-CLTA; assay: phenotypically active (imaging signature differs from DMSO and reproducible) at any of 0.3-9 uM (binary (1 = active, 0 = inactive)); higher = active; conditions: treatment time: 24 h
Where a name gives a salt, the structure may show the parent alone.
In this exercise, the only acceptable responses are yes (1) (active), no (0) (inactive)

Solved entries (count: 9):
CC(C)(C)n1nc(-c2ccc(Cl)cc2)c2c(N)ncnc21: no (0)
O=C(c1cccc(Br)c1)N1CCC(N2CCCC2)CC1 [UNC 926 hydrochloride]: no (0)
COc1ccc(CN(CCN(C)C)c2ccccn2)cc1: no (0)
N=C(N)c1ccc(OCCCCCOc2ccc(C(=N)N)cc2)cc1: yes (1)
CNC[C@H](O)c1ccc(O)c(O)c1 [epinephrine]: no (0)
CC(C)(C)c1nc(-c2cccc(NS(=O)(=O)c3c(F)cccc3F)c2F)c(-c2ccnc(N)n2)s1: yes (1)
CC(C[N+](C)(C)C)OC(N)=O (stereo not given): no (0)
COc1ccc(S(=O)(=O)N(C(C)=O)c2ccccc2/C=C/c2cc[n+]([O-])cc2)cc1: yes (1)
Cc1c(-c2cnccn2)ssc1=S: no (0)

Query compound follows.
q: GET /call?item= CCCCC1C(=O)N(c2ccccc2)N(c2ccc(O)cc2)C1=O (stereo not given) returns the recorded outcome of this test.
a: no (0)
